phosphorylation enrichment values by entry
- Test system: c-Src;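 also: 11-residue human phosphosite peptides and single-mutation variants displayed on the E. coli surface, counted by deep sequencing, each peptide's frequency after selection divided by its frequency in the unselected input library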;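 also: frequency after pTyr selection over input frequency; kinase dosed for 20-30% of maximal phosphorylation in three min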
- method: phosphorylation enrichment, bacterial display (enrichment ratio); higher = better substrate or ligand; peptides without Tyr show the background
Returns: the value as a bare number; no unit string appended.

>>> reported_value("PLDGEYFTLQI [TP53_Y327]")
3.81
>>> reported_value("LRYDSYWSYCN [SLC20A2_Y433_S434W]")
4.87
>>> reported_value("KPAFSYTSSST [SIM1_Y356]")
0.484
>>> reported_value("GTQGSYLLSRK [UGT3A1_Y123_C121G]")
0.555
>>> reported_value("YETVKYINNER [ABCB7_Y345_F346I]")
1.1
>>> reported_value("TNYRFYLRSLE [MTM1_Y71_L70F]")
0.41
>>> reported_value("DFTEAYNSKIK [CLK1_Y305_P307S_YF]")
0.56
>>> reported_value("PTEAQYRFIYM [PTPN11_Y511_Q506P]")
1.75
>>> reported_value("AFLQTYSHEVS [PCDHGA5_Y753]")
0.812
>>> reported_value("ARKCKYFKKHE [NFIX_Y40_R38C]")
0.545

## Input Which phosphorylation enrichment value belongs to SVETPYGSVTF [NDRG2_Y47] ?
## Output 4.56

## Input Which phosphorylation enrichment value belongs to PSDSGYSYETI [MAP1B_Y1921] ?
## Output 0.454

## Input Which phosphorylation enrichment value belongs to GTVRDYPDFNP [ANXA3_Y15_S19N] ?
## Output 0.357

## Input Which phosphorylation enrichment value belongs to SQAPGYSFTAA [CYCS_Y47_G42S_YF] ?
## Output 0.414

## Input Which phosphorylation enrichment value belongs to SLNAVYPKAGS [OAS3_Y376_R378K] ?
## Output 0.473

## Input Which phosphorylation enrichment value belongs to CLAKMYYSAVD [CP_Y539] ?
## Output 0.722

## Input Which phosphorylation enrichment value belongs to TYEYKYPEGSS [TGM4_Y440] ?
## Output 0.525

## Input Which phosphorylation enrichment value belongs to MFNPFYGLFEF [NEDD4L_Y680_YF] ?
## Output 5.41

## Input Which phosphorylation enrichment value belongs to LSIQTYSALNF [DES_Y423_P419S] ?
## Output 5.21

## Input Which phosphorylation enrichment value belongs to NTTIHYNYMCN [TP53_Y234_C229N] ?
## Output 0.496
